# TESTED_TARGET: human PAC1 (Homo sapiens, UniProt P41586)
# Sequence (P41586 21-468): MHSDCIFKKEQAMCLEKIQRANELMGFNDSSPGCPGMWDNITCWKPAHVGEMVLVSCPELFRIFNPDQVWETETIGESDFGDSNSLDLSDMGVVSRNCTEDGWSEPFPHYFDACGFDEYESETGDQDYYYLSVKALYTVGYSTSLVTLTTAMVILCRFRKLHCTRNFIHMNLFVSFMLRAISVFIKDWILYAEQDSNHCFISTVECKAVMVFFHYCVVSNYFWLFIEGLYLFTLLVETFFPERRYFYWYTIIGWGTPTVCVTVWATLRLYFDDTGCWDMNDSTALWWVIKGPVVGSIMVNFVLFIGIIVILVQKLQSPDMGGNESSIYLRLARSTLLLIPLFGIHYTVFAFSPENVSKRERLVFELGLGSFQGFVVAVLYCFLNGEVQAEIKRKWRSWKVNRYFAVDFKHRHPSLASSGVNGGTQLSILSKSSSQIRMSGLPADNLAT
# ASSAY_REMARKS: cell-based
# Method: Also, the cells are washed twice. The cells are incubated in assay buffer plus IBMX for 15 minutes at room temperature. […] The stimuli are present for 30 minutes. Then, the assay buffer is gently removed. […] At day 3, the assay described above for the VPAC2 receptor cell line is performed.
Where no end group is shown, it is not given here.
Measured pEC50 values are reported for all entries that follow.
Please keep in mind that pEC50 is minus log10 of the molar concentration; only the number is needed.

SUBSTANCE: HSDAVFTDNYTRLRKQVAAKKYLQSIKNSRTSPPP-NH2 [Agonist P5]
pEC50: 7.52

Note: attention shifts to another entry.
What value of measured pEC50 is listed for Ac-HSDAVFTDNYTRLRKQVAAKKYLQSIKNSRTSPPP-NH2 [Agonist P32] ?
6.90
